Recorded IC50 by entry
tested on: RS4; 11 leukaemia cell line; assay: In vitro cytotoxicity, Microculture Tetrazolium Assay (MTT); assay type: cell-based; conditions: Homo sapiens, 11 cells exposed for 48 hours
Number in nM, nothing else.

Some entries whose results are on file:
> print(dat)
                                   compound  experimental.result
1  C[C@@H]1Cc2ccccc2CN1C(=O)c1cc2c(cc1-c1cc(C(=O)N(C)c3ccc(O)cc3)c3n1CCCC3)CCN(C(=O)Cc1ccccc1)C2 [Example 36]                  6.2
2  C[C@@H]1Cc2ccccc2CN1C(=O)c1cc2c(cc1-c1cc(C(=O)N(c3ccccc3)c3ccc(O)cc3)c3n1CCCC3)CCN(C(=O)Cc1ccccc1)C2 [Example 134]                    2

Moving on to another compound below.
Input: Request: IC50, test system RS4; 11 leukaemia cell line, entry Cc1c(C(=O)N(C)c2ccc(O)cc2)cc(-c2cc3c(cc2C(=O)N2Cc4ccccc4C[C@H]2CN2CCOCC2)CN(C(=O)Oc2ccc(Cl)cc2)CC3)n1C [Example 140]
Output: 4

###

system: RS4; 11 leukaemia cell line; assay: In vitro cytotoxicity, Microculture Tetrazolium Assay (MTT); format: cell-based; settings: Homo sapiens, 11 cells exposed for 48 hours
# strict inequality: IC50 < 30 nM yields fulfilled, everything else yields not fulfilled

> print(dat)
                                   molecule              measured.target    group.label
1  CC(Cc1ccccc1)C(=O)N1Cc2cc(C(=O)N3Cc4ccccc4C[C@H]3C)c(-c3cc(C(=O)N(C)c4ccc(O)cc4)c4n3CCCC4)cc2C1 (some centres unmarked)  RS4; 11 leukaemia cell line  not fulfilled

Input: Confirm or reject: IC50 of C[C@@H]1Cc2ccccc2CN1C(=O)c1cc2c(cc1-c1cc(C(=O)N(C)c3ccc(O)cc3)c3n1CCCC3)CN(C(=O)COc1cccc(Cl)c1)C2 lies strictly below 30 nM
Output: fulfilled

Input: Confirm or reject: IC50 of Cc1c(C(=O)N(C)c2ccc(O)cc2)cc(-c2cc3c(cc2C(=O)N2Cc4ccccc4C[C@H]2CN2CCOCC2)CN(C(=O)O[C@@H]2C[C@H](C)CC[C@H]2C(C)C)CC3)n1C lies strictly below 30 nM
Output: not fulfilled

###

molecular target: Bcl-2 protein (histag-Bcl-2, UniProtKB P10415) (Homo sapiens (Human), UniProt P10415); test: Inhibition of Bcl-2 by the fluorescence polarisation technique; format: binding; details: fluorescence polarisation test; incubation for 2 hours; read-out: IC50 (nM) Bcl-2 FP
Sequence (P10415 whole entry): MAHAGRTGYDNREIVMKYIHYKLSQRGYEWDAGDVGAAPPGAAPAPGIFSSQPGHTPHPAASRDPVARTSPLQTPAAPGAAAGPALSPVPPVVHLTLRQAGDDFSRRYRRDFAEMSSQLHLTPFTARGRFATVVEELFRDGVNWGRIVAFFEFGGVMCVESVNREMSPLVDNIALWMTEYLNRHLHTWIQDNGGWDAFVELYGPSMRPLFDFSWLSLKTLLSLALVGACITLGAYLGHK
Recorded IC50 by entry
Number in nM, nothing else.

Some entries whose results are on file:
> print(dat)
                                   compound                           measured.target  endpoint.label  experimental.result
1  Cc1c(C(=O)N(C)c2ccc(O)cc2)cc(-c2cc3c(cc2C(=O)N2Cc4ccccc4C[C@H]2CN2CCN(C)CC2)CN(C(=O)Oc2ccccc2)CC3)n1C  Bcl-2 protein (histag-Bcl-2, UniProtKB P10415) (Homo sapiens (Human), UniProt P10415)            IC50                  2.7
2  Cc1c(C(=O)N(C)c2ccc(O)cc2)cc(-c2cc3c(cc2C(=O)N2Cc4ccccc4C[C@H]2CN2CCOCC2)CN(C(=O)Oc2cccc(C#N)c2)CC3)n1C  Bcl-2 protein (histag-Bcl-2, UniProtKB P10415) (Homo sapiens (Human), UniProt P10415)            IC50                  8.8

Moving on to another compound below.
Input: Can you share its IC50? I mean this compound: C[C@@H]1Cc2ccccc2CN1C(=O)c1cc2c(cc1-c1cc(C(=O)N(C)c3ccc(O)cc3)c3n1CCCC3)CN(C(=O)N1CC(c3ccccc3)C1)C2
Output: 15

###

biological target: Bcl-2 protein (histag-Bcl-2, UniProtKB P10415) (Homo sapiens (Human), UniProt P10415); assay: Inhibition of Bcl-2 by the fluorescence polarisation technique; assay type: binding; settings: fluorescence polarisation test; incubation for 2 hours; read-out: IC50 (nM) Bcl-2 FP
Recorded IC50 by entry

Some entries whose results are on file:
> print(dat)
                                   compound  experimental.result
1  Cc1c(C(=O)N(C)c2ccc(O)cc2)cc(-c2cc3c(cc2C(=O)N2Cc4ccccc4C[C@H]2C)CN(C(=O)[C@@H](O)c2ccccc2)C3)n1C [Example 806]                33 nM
2  CCNC(=O)N1Cc2cc(C(=O)N3Cc4ccccc4C[C@H]3C)c(-c3cc(C(=O)N(C)c4ccc(O)cc4)c(C)n3C)cc2C1 [Example 110]                19 nM

Input: Request: IC50, test system Bcl-2 protein (histag-Bcl-2, UniProtKB P10415) (Homo sapiens (Human), UniProt P10415), entry CCCCN(CCCC)C(=O)c1cc(-c2cc3c(cc2C(=O)N2CCc4ccccc4C2)CN(C(=O)Oc2ccccc2)CC3)n(C)c1C [Example 161]
Output: 68 nM

###

tested on: RS4; 11 leukaemia cell line; experiment: In vitro cytotoxicity, Microculture Tetrazolium Assay (MTT); assay type: cell-based; conditions: Homo sapiens, 11 cells exposed for 48 hours
Where a name gives a salt, the structure may show the parent alone.
Recorded IC50 by entry
Number in nM, nothing else.

Compound	Unit	IC50
CN(C(=O)c1cc(-c2cc3c(cc2C(=O)N2Cc4ccccc4C[C@H]2CN2CCOCC2)CN(S(=O)(=O)c2ccccc2)CC3)n2c1CCCC2)c1ccc(O)cc1	nM	236
COc1ccc(CC(=O)N2Cc3cc(C(=O)N4Cc5ccccc5C[C@H]4C)c(-c4cc(C(=O)N(C)c5ccc(O)cc5)c5n4CCCC5)cc3C2)cc1	nM	23
Cc1ccc(OC(=O)N2CCc3cc(-c4cc(C(=O)N(C)c5ccc(O)cc5)c(C)n4C)c(C(=O)N4Cc5ccccc5C[C@H]4CN4CCOCC4)cc3C2)cc1	nM	0.84
Cc1c(C(=O)N(C)c2ccc(O)cc2)cc(-c2cc3c(cc2C(=O)N2Cc4ccccc4C[C@H]2CN2CCOCC2)CN(C(=O)Oc2ccccc2)CC3)n1C [Example 88, hydrochloride]	nM	3.9

Input: Can you share its IC50? I mean this compound: C[C@@H]1Cc2ccccc2CN1C(=O)c1cc2c(cc1-c1cc(C(=O)N(C)c3ccc(O)cc3)c3n1CCCC3)CN(C(=O)Cc1csc(-c3cnccn3)n1)C2
Output: 113

###

tested on: RS4; 11 leukaemia cell line; experiment: In vitro cytotoxicity, Microculture Tetrazolium Assay (MTT); format: cell-based; conditions: Homo sapiens, 11 cells exposed for 48 hours
Endpoint label: IC50 (nM)
Number in nM, nothing else.

Molecule	Unit	IC50
Cc1ccc(CC(C)C(=O)N2Cc3cc(C(=O)N4Cc5ccccc5C[C@H]4C)c(-c4cc(C(=O)N(C)c5ccc(O)cc5)c5n4CCCC5)cc3C2)cc1 (some centres unmarked) [Example 25]	nM	144

Input: Request: IC50, test system RS4; 11 leukaemia cell line, entry CN(C(=O)c1cc(-c2cc3c(cc2C(=O)N2Cc4ccccc4C[C@H]2CN2CCOCC2)CN(C(=O)Oc2ccc(C(F)(F)F)cc2)CC3)n2c1CCCC2)c1ccc(O)cc1 [Example 124]
Output: 50

Input: Request: IC50, test system RS4; 11 leukaemia cell line, entry COc1cc(C#N)ccc1OC(=O)N1CCc2cc(-c3cc(C(=O)N(C)c4ccc(O)cc4)c4n3CCCC4)c(C(=O)N3Cc4ccccc4C[C@H]3CN3CCOCC3)cc2C1 [Example 148]
Output: 10

Input: Request: IC50, test system RS4; 11 leukaemia cell line, entry Cc1c(C(=O)N(C)c2ccccc2)cc(-c2cc3c(cc2C(=O)N2Cc4ccccc4C[C@H]2C)CN(C(=O)Oc2cnc4[nH]ccc4c2)CC3)n1C [Example 636]
Output: 34

###

test system: RS4; 11 leukaemia cell line; test: In vitro cytotoxicity, Microculture Tetrazolium Assay (MTT); assay type: cell-based; details: Homo sapiens, 11 cells exposed for 48 hours
Where a name gives a salt, the structure may show the parent alone.
Endpoint label: log10 of IC50 (log10 of the value in nM)
The figures below represent log10 of IC50, where IC50 is stated in nM.

Some entries whose results are on file:
Compound	log10 of IC50
C[C@@H]1Cc2ccccc2CN1C(=O)c1cc2c(cc1-c1cc(C(=O)N(C)c3ccc(O)cc3)c3n1CCCC3)CCN(C(=O)OC(C)(C)C)C2 [Example 47]	1.65
C[C@@H]1Cc2ccccc2CN1C(=O)c1cc2c(cc1-c1cc(C(=O)N(C)c3ccc(O)cc3)c3n1CCCC3)CCN(C(=O)Oc1ccc(NCCN(C)C)cc1)C2 [Example 153]	0.56
Cc1c(C(=O)N(C)c2ccc(O)cc2)cc(-c2cc3c(cc2C(=O)N2Cc4ccccc4C[C@H]2CCN2CCOCC2)CN(C(=O)Cc2ccccc2)CC3)n1C [Example 779]	1.38

Input: Can you share its log10 of IC50? I mean this compound: CN(C(=O)c1cc(-c2cc3c(cc2C(=O)N2Cc4ccccc4C[C@H]2CN2CCOCC2)CN(C(=O)Oc2ccccc2)C3)n2c1CCCC2)c1ccc(O)cc1 [Example 16, hydrochloride]
Output: 1.43

Input: Can you share its log10 of IC50? I mean this compound: Cc1c(C(=O)N(C)c2ccc(O)cc2)cc(-c2cc3c(cc2C(=O)N2Cc4ccccc4C[C@H]2C)CN(C(=O)Oc2ccc(C#N)cc2)CC3)n1C [Example 147]
Output: 0.36

Input: Can you share its log10 of IC50? I mean this compound: C[C@@H]1Cc2ccccc2CN1C(=O)c1cc2c(cc1-c1cc(C(=O)N(C)c3ccc(O)cc3)c3n1CCCC3)CCN(C(=O)Cc1ccc(N3CCN(C)CC3)cc1)C2 [Example 97]
Output: 1.18

Input: Can you share its log10 of IC50? I mean this compound: Cc1c(C(=O)N(C)c2ccccc2)cc(-c2cc3c(cc2C(=O)N2Cc4ccccc4C[C@H]2C)CN(C(=O)Oc2ccc(N(C)CCN(C)C)cc2)CC3)n1C [Example 488]
Output: 1.11

Input: Can you share its log10 of IC50? I mean this compound: C[C@@H]1Cc2ccccc2CN1C(=O)c1cc2c(cc1-c1cc(C(=O)N(C)c3ccc(O)cc3)c3n1CCCC3)CCN(C(=O)OCc1ccccc1)C2 [Example 93]
Output: 1.04

Input: Can you share its log10 of IC50? I mean this compound: Cc1c(C(=O)N(C)c2ccc(O)cc2)cc(-c2cc3c(cc2C(=O)N2Cc4ccccc4C[C@H]2C)CN(C(=O)Oc2ccccc2CCC(=O)N(C)C)CC3)n1C [Example 775]
Output: 0.80

Input: Can you share its log10 of IC50? I mean this compound: Cc1c(C(=O)N(C)c2ccc(O)cc2)cc(-c2cc3c(cc2C(=O)N2Cc4ccccc4C[C@H]2C)CN(C(=O)COc2ccccc2)C3)n1C [Example 103]
Output: 1.66

Input: Can you share its log10 of IC50? I mean this compound: C[C@@H]1Cc2ccccc2CN1C(=O)c1cc2c(cc1-c1cc(C(=O)N(C)c3ccc(O)cc3)c3n1CCCC3)CCN(C(=O)Oc1ccc(N)cc1)C2 [Example 58]
Output: 0.52

Input: Can you share its log10 of IC50? I mean this compound: Cc1c(C(=O)N(C)c2ccc(O)cc2)cc(-c2cc3c(cc2C(=O)N2Cc4ccccc4C[C@H]2CCN2CCOCC2)CN(C(=O)Oc2ccccc2)CC3)n1C [Example 216]
Output: 0.46

Input: Can you share its log10 of IC50? I mean this compound: Cc1c(C(=O)N(C)c2ccc(O)cc2)cc(-c2cc3c(cc2C(=O)N2Cc4ccccc4C[C@H]2C)CN(C(=O)NC2CCCCC2)CC3)n1C [Example 792]
Output: 1.32

Input: Can you share its log10 of IC50? I mean this compound: CCNC(=O)N1Cc2cc(C(=O)N3Cc4ccccc4C[C@H]3C)c(-c3cc(C(=O)N(C)c4ccc(O)cc4)c(C)n3C)cc2C1 [Example 110]
Output: 2.52

Input: Can you share its log10 of IC50? I mean this compound: CN(C(=O)c1cc(-c2cc3c(cc2C(=O)N2Cc4ccccc4C[C@H]2CN2CCOCC2)CN(C(=O)c2ccccc2)C3)n2c1CCCC2)c1ccc(O)cc1 [Example 12, hydrochloride]
Output: 2.88

Input: Can you share its log10 of IC50? I mean this compound: CCC(C(=O)N1CCc2cc(-c3cc(C(=O)N(C)c4ccc(O)cc4)c4n3CCCC4)c(C(=O)N3Cc4ccccc4C[C@H]3C)cc2C1)c1ccccc1 (stereo partly shown) [Example 95]
Output: 2.06

Input: Can you share its log10 of IC50? I mean this compound: C[C@@H]1Cc2ccccc2CN1C(=O)c1cc2c(cc1-c1cc(C(=O)N(C)c3ccc(O)cc3)c3n1CCCC3)CCN(C(=O)Cc1ccc(OCCN(C)C)cc1)C2 [Example 154]
Output: 0.77

Input: Can you share its log10 of IC50? I mean this compound: Cc1ccc(OC(=O)N2Cc3cc(C(=O)N4Cc5ccccc5C[C@H]4C)c(-c4cc(C(=O)N(C)c5ccc(O)cc5)c(C)n4C)cc3C2)cc1 [Example 107]
Output: 0.84

Origin of the recorded values: patent US9809574B2
